# study_target: Human PKMYT1 (Homo sapiens)
# Construct: Human PKMYT1 75-362 was cloned as a TEV cleavable 6xHis fusion; 6xHis (TEV cleavable) (cleaved yes); made in house; host or cells: bacterial cells
# Sequence (Q99640 75-362): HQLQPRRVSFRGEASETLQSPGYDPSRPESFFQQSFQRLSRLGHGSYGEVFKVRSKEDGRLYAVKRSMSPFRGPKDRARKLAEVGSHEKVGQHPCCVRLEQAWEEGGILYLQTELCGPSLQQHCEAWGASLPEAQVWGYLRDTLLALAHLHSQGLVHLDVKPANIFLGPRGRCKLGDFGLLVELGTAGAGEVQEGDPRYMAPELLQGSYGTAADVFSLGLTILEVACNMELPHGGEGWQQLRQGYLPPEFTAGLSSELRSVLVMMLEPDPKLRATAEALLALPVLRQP
# measurement_notes: PKMYT1 biochemical ADP-Glo enzymatic assay
# run_parameters: PKMYT1 kinase domain 15 nM; ADP-Glo; banded values
We begin with a simple list: items and their reported IC50.

Reference set (7 entries):
Readout IC50 for `CCn1nc(Nc2ncc(C(=O)Nc3c(C)ccc(O)c3C)s2)c2cc(C(F)(F)F)ccc21` , test system Human PKMYT1 (Homo sapiens), was 50 to 1000 nM

Readout IC50 for `Cc1c(O)ccc(Br)c1NC(=O)c1cnc(Nc2ccn(CC(=O)N3CCCC3)n2)s1` , test system Human PKMYT1 (Homo sapiens), was < 50 nM

Readout IC50 for `Cc1ccc(O)c(C)c1NC(=O)c1cnc(Nc2n[nH]c3cc(F)cc(F)c23)s1` , test system Human PKMYT1 (Homo sapiens), was 50 to 1000 nM

Readout IC50 for `Cc1ccc(O)c(C)c1NC(=O)c1cnc(Nc2ccc3c(c2)NC(=O)CO3)s1` , test system Human PKMYT1 (Homo sapiens), was < 50 nM

Readout IC50 for `Cc1cn(CCN(C)C)nc1Nc1ncc(C(=O)Nc2c(C)ccc(O)c2C)s1` , test system Human PKMYT1 (Homo sapiens), was 50 to 1000 nM

Readout IC50 for `Cc1ccc(O)c(C)c1NC(=O)c1cnc(Nc2nn(C)c3ccc(C(F)(F)F)cc23)s1` , test system Human PKMYT1 (Homo sapiens), was 50 to 1000 nM

Readout IC50 for `Cc1ccc(O)c(C)c1NC(=O)c1cnc(Nc2cc(C(=O)N3CCOCC3)n(C)n2)s1` , test system Human PKMYT1 (Homo sapiens), was 50 to 1000 nM

Next item in the queue.
Readout IC50 for `Cc1ccc(O)c(C)c1NC(=O)c1cnc(Nc2cccc3cccnc23)s1` , test system Human PKMYT1 (Homo sapiens), was 50 to 1000 nM

----------
# study_target: Human PKMYT1 (Homo sapiens)
# Construct: Human PKMYT1 75-362 was cloned as a TEV cleavable 6xHis fusion; 6xHis (TEV cleavable) (cleaved yes); made in house; host or cells: bacterial cells
# measurement_notes: PKMYT1 biochemical ADP-Glo enzymatic assay
# run_parameters: ADP-Glo; 15 nM PKMYT1 kinase domain, 500 µM ATP, 60 minutes at 26° C.; banded
property_name: IC50

The reported IC50 of the compound Cc1cc(Nc2ccc(F)cc2)nnc1Nc1ncc(C(=O)Nc2c(C)ccc(O)c2C)s1 [BAA-324] was 50 to 1000 nM

The reported IC50 of the compound Cc1ccc(O)c(C)c1NC(=O)c1cnc(Nc2ccn([C@@H]3CCN(C(=O)CC(F)(F)F)C3)n2)s1 [BAA-084] was 50 to 1000 nM

The reported IC50 of the compound Cc1ccc(O)c(C)c1NC(=O)c1cnc(N)s1 [BAA-001] was 50 to 1000 nM

The reported IC50 of the compound Cc1ccc(O)c(C)c1NC(=O)c1cnc(Nc2ccn([C@@H]3CCN(C(=O)Cn4cccn4)C3)n2)s1 [BAA-103] was 50 to 1000 nM

The reported IC50 of the compound Cc1ccc(O)c(C)c1NC(=O)c1cnc(Nc2ccc(C#N)c(F)c2)s1 [BAA-283] was 1000 to 11000 nM

The reported IC50 of the compound Cc1cn(C2CN(C(=O)OC(C)(C)C)C2)nc1Nc1ncc(C(=O)Nc2c(C)ccc(O)c2C)s1 [BAA-272] was < 50 nM

The reported IC50 of the compound Cc1ccc(O)c(C)c1NC(=O)c1cnc(Nc2ccn([C@@H]3CCN(C(=O)C(F)(F)c4ccccc4)C3)n2)s1 [BAA-099] was 50 to 1000 nM

The reported IC50 of the compound Cc1cn(-c2cnn(C)c2)nc1Nc1ncc(C(=O)Nc2c(C)ccc(O)c2C)s1 [BAA-385] was < 50 nM

More entries:
The reported IC50 of the compound CNc1ncc(C(=O)Nc2c(C)ccc(O)c2C)s1 [BAA-221] was 50 to 1000 nM

The reported IC50 of the compound Cc1ccc(O)c(C)c1NC(=O)c1cnc(NCc2cc3ccccc3[nH]2)s1 [BAA-357] was 50 to 1000 nM

The reported IC50 of the compound Cc1ccc(O)c(C)c1NC(=O)c1cnc(Nc2nn(C)c(C)c2C)s1 [BAA-128] was 50 to 1000 nM
